Tested on: L1210, CEM and HeLa cell lines
method summary: Cytostatic activity, average or summary over L1210, CEM and HeLa
Type: cell-based
assay context: average of L1210, CEM and HeLa; read-out: Toxicity (IC50) Average
Attribute: IC50
The answer is to be given in µM; state only the numeric part.

compound	unit of measurement	val
CCc1cccc(C)c1NC(=O)CNC(=O)C1NC(=O)C2NC(=O)C(NC(=O)C3NC(=O)C(CC(N)=O)NC(=O)C(NC(=O)C(CC(C)C)NC)C(O)c4ccc(c(Cl)c4)Oc4cc3cc(c4OC3OC(CO)C(O)C(O)C3OC3CC(C)(N)C(O)C(C)O3)Oc3ccc(cc3Cl)C2O)c2ccc(O)c(c2)-c2c(O)cc(O)cc21 (stereo not drawn)	µM	188

The compound listed as CN[C@H](CC(C)C)C(=O)N[C@H]1C(=O)N[C@@H](CC(N)=O)C(=O)N[C@H]2C(=O)N[C@H]3C(=O)N[C@H](C(=O)N[C@H](C(=O)NCCNC(=O)/C=C/c4ccc(NS(=O)(=O)c5ccc(C)cc5)cc4)c4cc(O)cc(O)c4-c4cc3ccc4O)[C@H](O)c3ccc(c(Cl)c3)Oc3cc2cc(c3O[C@@H]2O[C@H](CO)[C@@H](O)[C@H](O)[C@H]2O[C@H]2C[C@](C)(N)[C@H](O)[C@H](C)O2)Oc2ccc(cc2Cl)[C@H]1O has a reported IC50 of 201

IC50 in this record for CN[C@H](CC(C)C)C(=O)N[C@H]1C(=O)N[C@@H](CC(N)=O)C(=O)N[C@H]2C(=O)N[C@H]3C(=O)N[C@H](C(=O)N[C@H](C(=O)NCC(=O)Nc4ccc([N+](=O)[O-])cc4)c4cc(O)cc(O)c4-c4cc3ccc4O)[C@H](O)c3ccc(c(Cl)c3)Oc3cc2cc(c3O[C@@H]2O[C@H](CO)[C@@H](O)[C@H](O)[C@H]2O[C@H]2C[C@](C)(N)[C@H](O)[C@H](C)O2)Oc2ccc(cc2Cl)[C@H]1O : 156

Please fill in: IC50 reported for CN[C@H](CC(C)C)C(=O)N[C@H]1C(=O)N[C@@H](CC(N)=O)C(=O)N[C@H]2C(=O)N[C@H]3C(=O)N[C@H](C(=O)N[C@H](C(=O)NCC(=O)Nc4ccc(F)cc4F)c4cc(O)cc(O)c4-c4cc3ccc4O)[C@H](O)c3ccc(c(Cl)c3)Oc3cc2cc(c3O[C@@H]2O[C@H](CO)[C@@H](O)[C@H](O)[C@H]2O[C@H]2C[C@](C)(N)[C@H](O)[C@H](C)O2)Oc2ccc(cc2Cl)[C@H]1O = 228

get_value(item= C#Cc1ccc2cc(C(=O)NCCCNC(=O)[C@H]3NC(=O)[C@H]4NC(=O)[C@H](NC(=O)[C@@H]5NC(=O)[C@H](CC(N)=O)NC(=O)[C@H](NC(=O)[C@@H](CC(C)C)NC)[C@H](O)c6ccc(c(Cl)c6)Oc6cc5cc(c6O[C@@H]5O[C@H](CO)[C@@H](O)[C@H](O)[C@H]5O[C@H]5C[C@](C)(N)[C@H](O)[C@H](C)O5)Oc5ccc(cc5Cl)[C@H]4O)c4ccc(O)c(c4)-c4c(O)cc(O)cc43)ccc2c1 , readout=IC50) returns 71

Data point: CNC(CC(C)C)C(=O)NC1C(=O)NC(CC(N)=O)C(=O)NC2C(=O)NC3C(=O)NC(C(=O)NC(C(=O)NCC(=O)Nc4ccc5c(c4)C(=O)c4ccccc4-5)c4cc(O)cc(O)c4-c4cc3ccc4O)C(O)c3ccc(c(Cl)c3)Oc3cc2cc(c3OC2OC(CO)C(O)C(O)C2OC2CC(C)(N)C(O)C(C)O2)Oc2ccc(cc2Cl)C1O (stereo not drawn) ; IC50 = 88
